Assay: Selectivity index, ratio of IC50 for human U2OS cells to IC50 for intracellular Trypanosoma cruzi infected in human U2OS cells
Assay type: toxicity, cell-based
Details: U2OS cells, read-out: Selectivity Index
Binary classification by selectivity ratio, with 7 as an inclusive lower bound for MET; all other cases are NOT MET.

compound	label
c1ccc(-c2nc(N3CCc4ccccc4C3)c3ccccc3n2)nc1	NOT MET

Could you please find out whether c1ccc(CNc2nc(-c3ccccn3)nc3ccccc23)nc1 has selectivity ratio that meets 7 or exceeds it? MET

Same thing, different compound: O=S(=O)(c1cccs1)N1CCc2nc(-c3ccccn3)nc(N3CCCCCC3)c2C1 MET

Now give it for Cc1cccc(CNc2nc(-c3ccccn3)nc3ccccc23)n1 too. MET

Please answer likewise for c1ccc(-c2nc(NCc3nccs3)c3ccccc3n2)nc1 MET

Repeat for the following compound: CCn1cc2c(N3CCC(c4ccccn4)C3)nc(-c3ccccn3)nc2n1 (stereo not drawn) NOT MET

* * *

# solubility kinetic values compiled below
Assay: Kinetic solubility of compound in aqueous buffer at pH 6.8 incubated for 16 to 24 hrs by HPLC analysis
Type: physicochemical
Conditions: time 16-24 hrs, read-out: Kinetic_solubility
Give the quantity in µg/mL, number only.

Previously resolved entries follow.
compound	solubility kinetic (µg/mL)
c1ccc(-c2nc(N3CCc4ccccc4C3)c3ccccc3n2)nc1	10
c1ccc(C2CCN(c3nc(-c4ccccn4)nc4ccccc34)C2)cc1 (stereo unspecified)	0.7
Cc1cnc(C)c(Nc2nc(-c3ccccn3)nc3ccccc23)c1	31
Cn1ccc2nc(-c3ccccn3)nc(N3CCC(c4ccccn4)C3)c21 (stereo unspecified)	90

Please look up its solubility kinetic: CC1CCCN(c2nc(-c3ccccn3)nc3ccccc23)C1 (stereo unspecified) 69

Also Cn1ncc2nc(-c3ccccn3)nc(N3CCC(c4ccccn4)C3)c21 (stereo unspecified) , if possible. 99

Consider next the compound c1ccc(C2CCCN(c3nc(-c4ccccn4)nc4ccccc34)C2)cc1 (stereo unspecified) in the same way. 0.1

Entry to check: c1ccc(-c2nc(NC3(c4ccccn4)CC3)c3ccccc3n2)nc1 84

Next record, please: c1ccc(-c2nc(N3CCC(c4ccccn4)C3)c3ccccc3n2)nc1 (racemic) 83

Quick one: CC(C)(Nc1nc(-c2ccccn2)nc2ccccc12)c1ccccn1 83

Can you handle CC1CCN(c2nc(-c3ccccn3)nc3ccccc23)CC1 next? 59

* * *

Assay: Selectivity index, ratio of IC50 for human U2OS cells to IC50 for intracellular Trypanosoma cruzi infected in human U2OS cells
Type: toxicity, cell-based
Conditions: U2OS cells, read-out: Selectivity Index
selectivity ratio values for the molecules below.

The examples below pair each entry with its known result.
molecule	selectivity ratio
c1ccc(-c2nc(N3CCN(c4ccccn4)CC3)c3ccccc3n2)nc1	6.4
Cn1cc(CNc2nc(-c3ccccn3)nc3ccccc23)cn1	5.2
CC(C)(Nc1nc(-c2ccccn2)nc2ccccc12)c1ccccn1	25
N#CC1CCCN(c2nc(-c3ccccn3)nc3ccccc23)C1 (centres undefined)	2.7
Cc1cnc(C)c(Nc2nc(-c3ccccn3)nc3ccccc23)c1	3.6

Reported selectivity ratio, molecule c1ccc(CN2CCN(c3nc(-c4ccccn4)nc4ccccc34)CC2)cc1 : ____ 27

// query: c1ccc(-c2nc(N3CCc4ncccc4C3)c3ccccc3n2)nc1 5.5

Queued: Fc1cccc(Nc2nc(-c3ccccn3)nc3ccccc23)c1 20

Then what about the molecule c1ccc(-c2nc(NCCn3ccnc3)c3ccccc3n2)nc1 ? 1

Now the same for OC1(c2ccccc2)CCN(c2nc(-c3ccccn3)nc3ccccc23)C1 (centres undefined) 2.8

Now try c1ccc(-c2nc(N3CCn4ccnc4C3)c3ccccc3n2)nc1 . 1.9

Continue with c1ccc(-c2nc(NCc3cccnc3)c3ccccc3n2)nc1 8

What do you have for c1ccc(-c2nc(NC3(c4ccccn4)CC3)c3ccccc3n2)nc1 ? 12

Likewise for c1ccc(-c2nc(N3CCCC3)c3ccccc3n2)nc1 ? 8.6

Would you mind doing CCn1ncc2c(N3CCC(c4ccccn4)C3)nc(-c3ccccn3)nc21 (centres undefined) as well? 2.8

Again, but for Cc1cccc(N2CCN(c3nc(-c4ccccn4)nc4ccccc34)CC2)n1 7

Can you handle Cc1cccnc1CNc1nc(-c2ccccn2)nc2ccccc12 next? 15

Next up: c1ccc(-c2nc(N3CCCC(c4ccccn4)C3)c3ccccc3n2)nc1 (centres undefined) 7.3

Cool, now Cn1ccnc1CNc1nc(-c2ccccn2)nc2ccccc12 14

One more molecule: c1ccc(-c2nc(N3CCCC3c3ccccn3)c3ccccc3n2)nc1 (centres undefined) 25

Next molecule up: Cn1ncc2nc(-c3ccccn3)nc(N3CCC(c4ccccn4)C3)c21 (centres undefined) 2.9

Also CCn1ccc2nc(-c3ccccn3)nc(N3CCC(c4ccccn4)C3)c21 (centres undefined) ? 28

Input CC1CCCN(c2nc(-c3ccccn3)nc3ccccc23)C1 (centres undefined) 19

Same for c1ccc(C2CCCN(c3nc(-c4ccccn4)nc4ccccc34)C2)cc1 (centres undefined) 6.4

And then c1ccc(-c2nc(NCCn3cnc4ccccc43)c3ccccc3n2)nc1 , what is it? 6.1

Quick one: c1ccc(-c2nc(Nc3ccc4[nH]ncc4c3)c3ccccc3n2)nc1 3.5

Proceed to CCn1cc2nc(-c3ccccn3)nc(N3CCC(c4ccccn4)C3)c2n1 (centres undefined) 2.8

// repeat for c1ccc(-c2nc(N3CCc4cccnc4C3)c3ccccc3n2)nc1 and report 4.9

Same question, NC(=O)C1CCN(c2nc(-c3ccccn3)nc3ccccc23)C1 (centres undefined) this time 2.2

* * *

Assay: Half life in Balb/C mouse plasma at 2 mg/kg, iv in presence of ABT by LC/MS/MS analysis
Type: ADME, organism-based
value.kind: half-life (h)
API: value field is a number in h; no unit string.

Query (molecule): c1ccc(-c2nc(N3CCC(c4ccccn4)C3)c3ccccc3n2)nc1 (racemic) ; field requested: half-life 1

* * *

Known solubility kinetic of a selection of molecules
Test: Kinetic solubility of compound in aqueous buffer at pH 6.8 incubated for 16 to 24 hrs by HPLC analysis
Format: physicochemical
Conditions: time 16-24 hrs, read-out: Kinetic_solubility
Provide the reading as a plain figure in µg/mL.

Worked set:
molecule	value.kind	unit.of.measure	result
c1ccc(OC2CCN(c3nc(-c4ccccn4)nc4ccccc34)C2)cc1 (stereo not drawn)	solubility kinetic	µg/mL	7.7
CCn1cc2nc(-c3ccccn3)nc(N3CCC(c4ccccn4)C3)c2n1 (stereo not drawn)	solubility kinetic	µg/mL	94

Next:
What does the data say about its solubility kinetic? Entry: c1ccc(N2CCN(c3nc(-c4ccccn4)nc4ccccc34)CC2)cc1 15

* * *

Assay: AUC (0 to last) in Balb/C mouse at 50 mg/kg, po or 1 mg/kg, iv by LC/MS/MS analysis
Type: ADME, organism-based
Parameters: dose 50 mg/kg, route po
Details: in vivo
value.kind: AUC(0-t) (ng·h/mL)
Numeric answer only, unit ng·h/mL assumed.

Can you look up the measured AUC(0-t) of CC(C)(Nc1nc(-c2ccccn2)nc2ccccc12)c1ccccn1 for me? 59900

* * *

Measured Papp at 3 h, listed per entry.
Assay: Permeability of compound incubated for 3 hrs by PAMPA assay
Assay type: ADME
Conditions: read-out: permeability
Give just the numeric value; ×10⁻⁶ cm/s need not be written.

Record excerpt, results attached:
compound	unit.of.measure	result
CC1CCCN(c2nc(-c3ccccn3)nc3ccccc23)C1 (stereo not drawn)	×10⁻⁶ cm/s	36.4
c1ccc(N2CCN(c3nc(-c4ccccn4)nc4ccccc34)CC2)cc1	×10⁻⁶ cm/s	29.1
c1ccc(-c2nc(N3CCc4ccccc4C3)c3ccccc3n2)nc1	×10⁻⁶ cm/s	40.8
c1ccc(C2CCCN(c3nc(-c4ccccn4)nc4ccccc34)C2)cc1 (stereo not drawn)	×10⁻⁶ cm/s	41.6
CC1CCN(c2nc(-c3ccccn3)nc3ccccc23)CC1	×10⁻⁶ cm/s	44.1

Entry Cn1ccc2nc(-c3ccccn3)nc(N3CCC(c4ccccn4)C3)c21 (stereo not drawn) has what Papp at 3 h? 21.9

How about this compound: Cc1cnc(C)c(Nc2nc(-c3ccccn3)nc3ccccc23)c1 20.1

Query c1ccc(-c2nc(N3CCC(c4ccccn4)C3)c3ccccc3n2)nc1 (racemic) next 31.9

Follow-up entry: CCn1cc2nc(-c3ccccn3)nc(N3CCC(c4ccccn4)C3)c2n1 (stereo not drawn) 22

What would you report for Cn1ncc2nc(-c3ccccn3)nc(N3CCC(c4ccccn4)C3)c21 (stereo not drawn) ? 17.1

Param item: c1ccc(OC2CCN(c3nc(-c4ccccn4)nc4ccccc34)C2)cc1 (stereo not drawn) 43

// same read-out, input: CC(C)(Nc1nc(-c2ccccn2)nc2ccccc12)c1ccccn1 25.8

Follow-up entry: c1ccc(-c2nc(NC3(c4ccccn4)CC3)c3ccccc3n2)nc1 21.9

* * *

Assay: Intrinsic clearance in mouse liver microsomes at 1 uM incubated for 15 to 30 mins by LC/MS/MS analysis
Assay type: ADME, Microsome
Conditions: time 15-30 min
value.kind: intrinsic clearance (CLint) (µL/min/mg)
Dear colleague, please return just the value in µL/min/mg, with no unit written.

# annotated cases, reported intrinsic clearance (CLint) shown
compound	unit.of.measure	result
c1ccc(-c2nc(NC3(c4ccccn4)CC3)c3ccccc3n2)nc1	µL/min/mg	24
c1ccc(-c2nc(N3CCc4ccccc4C3)c3ccccc3n2)nc1	µL/min/mg	464

GET /values?readout=intrinsic clearance (CLint)&item= Cc1cnc(C)c(Nc2nc(-c3ccccn3)nc3ccccc23)c1 154

Now consider c1ccc(-c2nc(N3CCC(c4ccccn4)C3)c3ccccc3n2)nc1 (racemic) . 258

Repeat with c1ccc(C2CCCN(c3nc(-c4ccccn4)nc4ccccc34)C2)cc1 (configuration not stated) 318

Then this compound: CCn1cc2nc(-c3ccccn3)nc(N3CCC(c4ccccn4)C3)c2n1 (configuration not stated) 70

Subsequent entry: CC1CCCN(c2nc(-c3ccccn3)nc3ccccc23)C1 (configuration not stated) 452

Provenance of the data: ChEMBL document CHEMBL5316304
